molecular target: GST tagged Bcl w delta C29 protein (UniProt Q92843); assay: competition assay; competitor: biotinylated Bim BH3 peptide
Below, each of the substances is paired with its reported IC50 value.
attribute measured: IC50

Peptide T (linear) Ac-IWIAQELCitCitIGDEFNA-NH2; 20 nM
Peptide G (constrained) Ac-QAIAQZLRRIGDZFNA-NH2; 2.4 nM
